Origin of measurements: patent US10793575B2

biological target: UniProt Q06187; test: C481S Mutant BTK Inhibitory Activity Test, wild type BTK (mobility shift assay); format: biochemical; details: 120 μM ATP
pIC50: −log10 of the molar value.
READOUT: pIC50

Solved entries (count: 7):
{"columns": ["COMPOUND_STRING", "READOUT_NUMBER"],
 "data": [
  ["Nc1nc(-c2cccc(-n3ccc4cc(C5CC5)cc(F)c4c3=O)c2CO)c2cc(-c3ccc(CN4CCN(CCO)CC4)cc3)[nH]c2n1", 9.44],
  ["CN(C)C(=O)N1CC=C(c2cc3c(-c4cccc(-n5ccc6cc(C7CC7)cc(F)c6c5=O)c4CO)nc(N)nc3[nH]2)CC1", 9.28],
  ["CS(=O)(=O)c1ccc(-c2cc3c(-c4cccc(-n5ccc6cc(C7CC7)cc(F)c6c5=O)c4CO)nc(N)nc3[nH]2)cc1", 9.14],
  ["Cn1cc(-c2cc3c(-c4cccc(-n5ccc6cc(C7CC7)cc(F)c6c5=O)c4CO)nc(N)nc3[nH]2)cn1", 9.31],
  ["Nc1nc(-c2cccc(-n3ccc4cc(C5CC5)cc(F)c4c3=O)c2CO)c2cc(C3=CCN(C4COC4)CC3)[nH]c2n1", 9.34],
  ["CNc1cc(-c2cc3c(-c4cccc(-n5ccc6cc(C7CC7)cc(F)c6c5=O)c4CO)nc(N)nc3[nH]2)ccn1", 9.11],
  ["Nc1nc(-c2cccc(-n3ccc4cc(C5CC5)cc(F)c4c3=O)c2CO)c2cc(-c3ccc(CN4CCCCC4)cc3)[nH]c2n1", 9.24]
]}

1: Nc1nc(-c2cccc(-n3ccc4cc(C5CC5)cc(F)c4c3=O)c2CO)c2cc(C3=CCS(=O)(=O)CC3)[nH]c2n1
2: CCN1CC=C(c2cc3c(-c4cccc(-n5ccc6cc(C7CC7)cc(F)c6c5=O)c4CO)nc(N)nc3[nH]2)CC1
query: Rank 1 against 2 by their pIC50 values and give the higher one. Lab log: write the label of the selected item as the result.
result: 1
(1: 9.60, 2: 9.33)

###

molecular target: C481S mutant BTK [BTK(C481S)] (Homo sapiens (Human), UniProt Q06187, C481S); assay: C481S Mutant BTK Inhibitory Activity Test (mobility shift assay); assay type: biochemical; conditions: C481S mutant BTK, 100 μM ATP
Sequence (Q06187 whole entry C481S): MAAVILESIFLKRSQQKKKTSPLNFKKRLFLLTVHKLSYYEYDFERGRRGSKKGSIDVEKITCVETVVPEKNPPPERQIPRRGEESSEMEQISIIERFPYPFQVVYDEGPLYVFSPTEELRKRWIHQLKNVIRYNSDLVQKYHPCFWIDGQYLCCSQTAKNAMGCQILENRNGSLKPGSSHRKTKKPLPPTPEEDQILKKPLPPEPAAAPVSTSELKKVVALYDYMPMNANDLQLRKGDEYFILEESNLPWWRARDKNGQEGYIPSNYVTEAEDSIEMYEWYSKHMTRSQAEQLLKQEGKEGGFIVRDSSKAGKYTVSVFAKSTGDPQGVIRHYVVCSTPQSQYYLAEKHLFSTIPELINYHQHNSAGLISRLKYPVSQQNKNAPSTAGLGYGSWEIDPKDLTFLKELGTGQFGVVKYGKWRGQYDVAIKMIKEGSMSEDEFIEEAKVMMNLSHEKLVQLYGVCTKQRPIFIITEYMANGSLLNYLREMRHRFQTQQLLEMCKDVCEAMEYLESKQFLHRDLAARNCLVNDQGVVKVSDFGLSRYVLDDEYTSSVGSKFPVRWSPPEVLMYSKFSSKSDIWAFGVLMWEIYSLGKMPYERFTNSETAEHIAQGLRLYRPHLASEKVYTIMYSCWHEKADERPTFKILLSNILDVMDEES
READOUT: IC50 (nM)

{"columns": ["COMPOUND_STRING", "IC50 (nM)"],
 "data": [
  ["Nc1nc(-c2cccc(-n3ccc4cc(C5CC5)cc(F)c4c3=O)c2CO)c2cc(-c3cccc(F)n3)[nH]c2n1", 1.06],
  ["CS(=O)(=O)N1CC=C(c2cc3c(-c4cccc(-n5ccc6cc(C7CC7)cc(F)c6c5=O)c4CO)nc(N)nc3[nH]2)CC1", 0.7],
  ["Nc1nc(-c2cccc(-n3ccc4cc(C5CC5)cc(F)c4c3=O)c2CO)c2cc(C3=CCS(=O)(=O)CC3)[nH]c2n1", 0.58]
]}

I: Nc1nc(-c2cccc(-n3ccc4cc(C5CC5)cc(F)c4c3=O)c2CO)c2cc(C3=CCN(C4COC4)CC3)[nH]c2n1
II: CNc1cc(-c2cc3c(-c4cccc(-n5ccc6cc(C7CC7)cc(F)c6c5=O)c4CO)nc(N)nc3[nH]2)ccn1
query: Which of these two has the smaller recorded IC50: I or II ? Lab log: write the label of the selected item as the result.
result: I

A: CCC(=O)N1CC=C(c2cc3c(-c4cccc(-n5ccc6cc(C7CC7)cc(F)c6c5=O)c4CO)nc(N)nc3[nH]2)CC1
B: Nc1nc(-c2cccc(-n3ccc4cc(C5CC5)cc(F)c4c3=O)c2CO)c2cc(-c3ccnc(F)c3)[nH]c2n1
C: Nc1nc(-c2cccc(-n3ccc4cc(C5CC5)cc(F)c4c3=O)c2CO)c2cc(-c3ccc(CN4CCN(CCO)CC4)cc3)[nH]c2n1
query: Order the records by IC50, with each subsequent value no larger than the one before. Rank them, then answer with their labels in that order.
result: B, A, C
(B: 1.72 nM, A: 0.82 nM, C: 0.57 nM)

A: CCN1CC=C(c2cc3c(-c4cccc(-n5ccc6cc(C7CC7)cc(F)c6c5=O)c4CO)nc(N)nc3[nH]2)CC1
B: Cn1cc(-c2cc3c(-c4cccc(-n5ccc6cc(C7CC7)cc(F)c6c5=O)c4CO)nc(N)nc3[nH]2)cn1
query: Rank A against B by their IC50 values and give the higher one. Lab log: write the label of the selected item as the result.
result: A
(A: 1.1 nM, B: 0.6 nM)
